Ref: patent US20190175633A1

| compound | melting point |
| --- | --- |
| CCCCCCCCCCCCCC1(CCCCCCCCCCCCC)O[C@@H]2[C@H](O1)[C@@H](CO)O[C@H]2n1ccc(=O)[nH]c1=O [Compound 25c] | 90.1 °C |
| CCCCCCCCCCCCCCCCCCN(CC#CCN(CCCCCCCCCCCCCCCCCC)CCCCCCCCCCCCCCCCCC)CCCCCCCCCCCCCCCCCC [Compound 52] | 55 to 56 °C |
| CCCCCCCCCCCCCCCCCCN(CC#CCCl)CCCCCCCCCCCCCCCCCC [Compound 51, 4-Chloro-N,N-dioctadecylbut-2-yn-1-amine] | 51 to 52 °C |
| CCCCCCCCCCCCCCCCCCN(CCCCCCCCCCCCCCCCCC)C(C)C(=O)OC (stereo not shown) [Compound 41, Methyl N,N-dioctadecyl-2-aminopropionate] | 44 to 45 °C |
| CCCCCCCCCC1(CCCCCCCCC)O[C@@H]2[C@H](O1)[C@@H](CO)O[C@H]2n1ccc(=O)[nH]c1=O [Compound 25b] | 69.8 °C |
| CCCCCCCCCCCCCCCCCCN1CCCC1 | 25 to 27 °C |
| CCCCCCCCCCCCCCCCCCNCCCCO [Compound 60, 4-(Octadecylamino)butan-1-ol] | 68 to 69 °C |
